Source of measurements: patent US20240016941A1

target: LasB elastase activity of dialysed supernatant from P. aeruginosa PAO1 (Pseudomonas aeruginosa, UniProt P14756); construct: Culture supernatants are recovered by centrifugation and filtrated through a 0.22 μM filter; endogenous in cells; host or cells: P. aeruginosa strain PAO1, culture supernatant, filtered and dialysed; experiment: Elastin Congo-Red assay to determine % inhibition (dialysed PAO1 supernatant); type: biochemical; details: read-out: Elastin hydrolysis % inhibition @ 25 μM inhibitor concentration
Sequence (P14756 198-498): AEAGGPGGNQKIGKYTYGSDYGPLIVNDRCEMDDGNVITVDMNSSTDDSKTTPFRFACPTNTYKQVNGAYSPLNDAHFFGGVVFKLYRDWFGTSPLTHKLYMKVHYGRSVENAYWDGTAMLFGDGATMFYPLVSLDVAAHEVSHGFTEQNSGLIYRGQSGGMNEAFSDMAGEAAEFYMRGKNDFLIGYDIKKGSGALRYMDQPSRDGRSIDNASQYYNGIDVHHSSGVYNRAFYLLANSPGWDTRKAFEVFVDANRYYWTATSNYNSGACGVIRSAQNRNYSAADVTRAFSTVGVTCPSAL
Field: inhibition at 25 µM. Provide a value for each of the compounds that follow.

Field request: inhibition at 25 µM | item: COc1cc2sc(CNC(=O)C3(CC(=O)O)Cc4ccccc4C3)nc2cc1C(=O)N1CCC(N(C)C)CC1
60 to 80%

Try COc1cc2sc(CNC(=O)C3(CC(=O)O)Cc4ccccc4C3)nc2cc1C(=O)N1CCOC(CN(C)C)C1 (centres unmarked) next.
60 to 80%

Would you mind doing CC[N+](C)(CC)CCCOc1cc2nc(CNC(=O)C3(CC(=O)[O-])Cc4ccccc4C3)sc2cc1OC as well?
60 to 80%

Now the same for COc1cc2sc(CNC(=O)C3(CC(=O)O)Cc4ccccc4C3)nc2cc1OCC(=O)N1CCN(C)CC1
60 to 80%

Another compound to check: COc1cc2sc(CNC(=O)C3(CC(=O)[O-])Cc4ccccc4C3)nc2cc1OCCC[N+](C)(C)CCO
60 to 80%

And for COc1cc2sc(CNC(=O)C3(CC(=O)[O-])Cc4cc(F)c(F)cc4C3)nc2cc1OCCC[N+](C)(CCO)CCO ?
> 80%

Repeat for the following compound: O=C(O)CC1(C(=O)NCc2nc3c(S(=O)(=O)N4CCCC4)cccc3s2)Cc2ccccc2C1
60 to 80%

Okay, and COc1cc2sc(CNC(=O)C3(CC(=O)O)Cc4ccccc4C3)nc2cc1C(=O)N1CC(N(C)C)C1 ?
> 80%

Moving on to the next compound: COc1cc2sc(CNC(=O)C3(CC(=O)[O-])Cc4cc(F)c(F)cc4C3)nc2cc1OCCC[N+]1(C)CCCC1
> 80%

COc1cc2sc(CNC(=O)C3(CC(=O)[O-])Cc4cc(F)c(F)cc4C3)nc2cc1OCCC[N+](C)(C)CCO ?
> 80%

Param item: COc1cc2sc(CNC(=O)C3(CC(=O)[O-])Cc4cc(F)c(F)cc4C3)nc2cc1OCC(=O)N1CC[N+](C)(C)CC1
60 to 80%

Query COc1cc2sc(CNC(=O)C3(CC(=O)O)Cc4ccccc4C3)nc2cc1S(=O)(=O)N1CCC(N(C)C)CC1 next
60 to 80%

For COc1cc2sc(CNC(=O)C3(CC(=O)[O-])Cc4cc(F)c(F)cc4C3)nc2cc1OCC1CC[N+](C)(C)CC1 then?
> 80%

Same thing, different compound: COc1cc2sc(CNC(=O)C3(CC(=O)O)Cc4cc(F)c(F)cc4C3)nc2cc1C(=O)N1CC(N(C)C)C1
> 80%

Do the same for COc1cc2sc(CNC(=O)C3(CC(=O)[O-])Cc4cc(F)c(F)cc4C3)nc2cc1C(=O)N1CC[N+](C)(C)CC1 please
60 to 80%

Next record, please: COc1cc2sc(CNC(=O)C3(CC(=O)[O-])Cc4cc(F)c(F)cc4C3)nc2cc1OCC[N+]1(C)CCOCC1
60 to 80%

Subsequent entry: COc1cc2sc(CNC(=O)C3(CC(=O)O)Cc4ccccc4C3)nc2cc1C(=O)N1CCN(C)CC1
60 to 80%

Next compound: CN(C)C1CN(C(=O)c2ccc3sc(CNC(=O)C4(CC(=O)O)Cc5ccccc5C4)nc3c2)C1
60 to 80%

Also need COc1cc2sc(CNC(=O)C3(CC(=O)O)Cc4ccccc4C3)nc2cc1OCCN1CCOCC1 , thanks.
> 80%

Next: COc1cc2sc(CNC(=O)C3(CC(=O)O)Cc4ccccc4C3)nc2cc1S(=O)(=O)N1CCN(C)CC1
60 to 80%

How about this compound: CN1CCN(C(=O)c2ccc3sc(CNC(=O)C4(CC(=O)O)Cc5ccccc5C4)nc3c2)CC1
60 to 80%

Then this compound: COc1cc2sc(CNC(=O)C3(CC(=O)O)Cc4cc(F)c(F)cc4C3)nc2cc1OCC1CCN(C)CC1
> 80%

Now try COc1cc2sc(CNC(=O)C3(CC(=O)[O-])Cc4ccccc4C3)nc2cc1S(=O)(=O)N1CCC([N+](C)(C)C)CC1 .
60 to 80%

Same question for COc1cc2sc(CNC(=O)C3(CC(=O)[O-])Cc4cc(F)c(F)cc4C3)nc2cc1OCCC[N+]1(C)CCOCC1 please.
60 to 80%

Try COc1cc2sc(CNC(=O)C3(CC(=O)[O-])Cc4ccccc4C3)nc2cc1C(=O)N1CC([N+](C)(C)C)C1 next.
60 to 80%

Try this compound next: COc1cc2sc(CNC(=O)C3(CC(=O)[O-])Cc4ccccc4C3)nc2cc1OCCC[N+](C)(CCO)CCO
60 to 80%

// query: N#Cc1ccc2nc(CNC(=O)C3(CC(=O)O)Cc4ccccc4C3)sc2c1
60 to 80%

Now try CN1CCN(C(=O)COc2ccc3sc(CNC(=O)C4(CC(=O)O)Cc5ccccc5C4)nc3c2)CC1 .
60 to 80%

Param item: COc1cc2sc(CNC(=O)C3(CC(=O)O)Cc4cc(F)c(F)cc4C3)nc2cc1OCC(=O)N1CCN(C)CC1
60 to 80%
